Origin of values: patent US20240034774A1

# Test Target: gp120 Bal (HIV (Bal))
# Assay Method Text: single-point ELISA at EC50 conc. of A-1
Endpoint Label: ELISA A450 (A450)
Give a bare numeral; the unit A450 is implied.

Note ELISA A450 for the binder shown: 1.31.35-1 (antibody, human IgG1, kappa, V domains shown) VH: QVQLVQSGAEVTKPGASVRVSCEASGYNIRDYFIHWWRQAPGQGLQWVGWINPKTGQPNNPRQFQGRVSLTRHASWDFDTFSFYMDLKALRSDDTATYFCARQRSDYWDFDVWGSGTQVTVSS VL: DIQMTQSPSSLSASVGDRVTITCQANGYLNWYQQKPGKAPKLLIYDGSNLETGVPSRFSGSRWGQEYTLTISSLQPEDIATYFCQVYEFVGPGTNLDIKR
0.9
